Hello, the source for this data is BindingDB's records for PubMed 40188441, in case you need it.

assay: Inhibition of human STING in human THP-1 Dual cells assessed as secreted luciferase reporter of interferon stimulated gene (ISG) measured after 24 hrs incubation by QUANTI-Luc detection assay
OBSERVABLE: pIC50
One number for each entry, as −log10 of the molar value.

O=C(Nc1cccc2c1OC(F)(F)O2)Nc1c[nH]c2ccccc12; 5.74

State recorded pIC50 for all listed molecules.
1. COCCOCCn1cc(-c2ccc3[nH]cc(NC(=O)Nc4ccc5c(c4)OC(F)(F)O5)c3c2)nn1
2. O=C(Nc1c[nH]c2ccccc12)N1CCc2[nH]c3c(Cl)c(Cl)ccc3c2C1
3. N#CC/C=C/c1ccc2[nH]cc(NC(=O)Nc3ccc4c(c3)OC(F)(F)O4)c2c1
4. Fc1cnc2[nH]cc(Nc3nc4cc(C5CCCC5)ccc4[nH]3)c2c1
5. O=C(Nc1ccc2c(c1)OCO2)Nc1c[nH]c2ccc(F)cc12

(A)
1: 5.60; 2: 5.67; 3: 6.94; 4: 7.36; 5: 5.46

State recorded pIC50 for all listed molecules.
1. CN1CCc2cc(NC(=O)Nc3c[nH]c4ccc(F)cc34)ccc21
2. O=C(Nc1ccc2c(c1)OC(F)(F)O2)Nc1c[nH]c2ccc(C#CCO)cc12
3. O=C(Nc1c[nH]c2ccc(F)cc12)N1CCc2[nH]c3c(Cl)c(Cl)ccc3c2C1
4. O=C(Nc1c[nH]c2ccc(F)cc12)N1CCc2oc3c(Cl)c(Cl)ccc3c2C1
5. O=C(Nc1ccc2c(c1)OC(F)(F)O2)Nc1c[nH]c2ccc(C#CC3CC3)cc12
6. Cn1cc(C#Cc2ccc3[nH]cc(NC(=O)Nc4ccc5c(c4)OC(F)(F)O5)c3c2)cn1
7. O=C(Nc1c[nH]c2ccc(Br)cc12)N1CCc2oc3c(Cl)c(Cl)ccc3c2C1
8. O=C(Nc1c[nH]c2ccc(Br)cc12)N1CCc2[nH]c3c(Cl)c(Cl)ccc3c2C1

(A)
1. 5.93
2. 5.66
3. 5.62
4. 6.42
5. 6.59
6. 6.58
7. 6.45
8. 6.10

====

What pIC50 was measured for each of the following?
experiment: Inhibition of human STING in human THP-1 Dual cells assessed as secreted luciferase reporter of interferon stimulated gene (ISG) measured after 24 hrs incubation by QUANTI-Luc detection assay
Give bare numbers, as −log10 of the molar value.

// known answers, use as guide
Fc1cc2[nH]cc(Nc3nc4cc(C5CCCC5)ccc4[nH]3)c2cc1F; 6.67
O=C(Nc1c[nH]c2ccccc12)N1CCc2[nH]c3c(Cl)c(Cl)cc(Br)c3c2C1; 5.69

(Q) Record request: pIC50 value, item "O=C(Nc1ccc2c(c1)OCCO2)Nc1c[nH]c2ccc(F)cc12"
(A) 5.87

====

What IC50 was measured for each of the following?
assay: Inhibition of human STING in human THP-1 Dual cells assessed as secreted luciferase reporter of interferon stimulated gene (ISG) measured after 24 hrs incubation by QUANTI-Luc detection assay
One number for each entry, in nM.

Fc1ccc2[nH]cc(Nc3nc4cc(C5CCCC5)ccc4[nH]3)c2c1; 43
CC(=O)OCC#Cc1ccc2[nH]cc(NC(=O)Nc3ccc4c(c3)OC(F)(F)O4)c2c1; 489
O=C(Nc1ccc2c(c1)OC(F)(F)C(F)(F)O2)Nc1c[nH]c2ccc(F)cc12; 110

State recorded IC50 for all listed compounds.
1. O=C(Nc1ccc2c(c1)NCC2)Nc1c[nH]c2ccc(F)cc12
2. O=C(Nc1ccc2c(c1)OC(F)(F)O2)Nc1c[nH]c2ccc(Cl)cc12
3. O=C(Nc1c[nH]c2cc(F)ccc12)N1CCc2[nH]c3c(Cl)c(Cl)ccc3c2C1
4. Fc1ccc2[nH]cc(Nc3nc4cc5c(cc4[nH]3)OC(F)(F)O5)c2c1

(A)
1: 1220; 2: 66; 3: 3180; 4: 192

====

What pIC50 was measured for each of the following?
assay: Inhibition of human STING in human THP-1 Dual cells assessed as secreted luciferase reporter of interferon stimulated gene (ISG) measured after 24 hrs incubation by QUANTI-Luc detection assay
Answers are plain numbers, as −log10 of the molar value.

COC(=O)/C=C/c1ccc2[nH]cc(NC(=O)Nc3ccc4c(c3)OC(F)(F)O4)c2c1; 5.44

State recorded pIC50 for all listed compounds.
1. Fc1ccc2[nH]cc(Nc3nc4cc(C(F)(C(F)(F)F)C(F)(F)F)ccc4[nH]3)c2c1
2. O=C(Nc1c[nH]c2cc(Cl)ccc12)N1CCc2[nH]c3c(Cl)c(Cl)ccc3c2C1
3. COc1ccc2[nH]cc(NC(=O)N3CCc4[nH]c5c(Cl)c(Cl)ccc5c4C3)c2c1
4. O=C(Nc1ccc2c(c1)OC(F)(F)O2)Nc1c[nH]c2ccc(Br)cc12
5. O=C(Nc1ccc2c(c1)OC(F)(F)O2)Nc1c[nH]c2ccccc12
6. C#Cc1ccc2[nH]cc(NC(=O)Nc3ccc4c(c3)OC(F)(F)O4)c2c1

(A)
1. 6.57
2. 5.48
3. 5.62
4. 7.15
5. 7.74
6. 6.92

====

test: Inhibition of human STING in human THP-1 Dual cells assessed as secreted luciferase reporter of interferon stimulated gene (ISG) measured after 24 hrs incubation by QUANTI-Luc detection assay
OBSERVABLE: IC50

Cc1ccc2c(NC(=O)N3CCc4[nH]c5c(Cl)c(Cl)ccc5c4C3)c[nH]c2c1; > 10 µM

State recorded IC50 for all listed compounds.
1. C=CC(=O)Nc1ccc2[nH]cc(NC(=O)Nc3ccc4c(c3)OC(F)(F)O4)c2c1
2. N#C/C=C/c1ccc2[nH]cc(NC(=O)Nc3ccc4c(c3)OC(F)(F)O4)c2c1

(A)
1. > 10 µM
2. > 10 µM
